biological target: Human recombinant MMP-14 (Homo sapiens); construct: The catalytic domain enzyme was expressed in E. coli inclusion bodies, solubilized in urea; made in house; assay: In vitro MMP inhibition analysis (fluorogenic peptide substrate cleavage), Ki; format: biochemical; conditions: Table 2
Response field label takes rule met when Ki is strictly below 300 nM and rule not met in all other cases.

molecule	class_assignment
O=C(CCc1nccs1)c1ccc(-c2ccc(S(=O)(=O)C3(C(=O)NO)CCOCC3)cc2)cc1	rule not met
O=C(NO)C1(S(=O)(=O)c2ccc(-c3ccc(C(F)(F)F)cc3F)cc2)CCOCC1	rule met
CC(C)Cc1ccc(-c2ccc(S(=O)(=O)C3(C(=O)NO)CCOCC3)cc2)nc1	rule not met
COCCOc1ccc(-c2ccc(S(=O)(=O)C3(C(=O)NO)CCN(CCOC)CC3)cc2)cc1F	rule not met
COCCOC1CCC(C(=O)NO)(S(=O)(=O)c2ccc(-c3ccc(CCCC(F)(F)F)cn3)cc2)CC1 (centres unmarked)	rule met
O=C(NO)C1(S(=O)(=O)c2ccc(-c3cnc(OCC(F)(F)C(F)(F)F)cn3)cc2)CCOCC1	rule not met
CCCCNc1cnc(-c2ccc(S(=O)(=O)C3(C(=O)NO)CCOCC3)cc2)cn1	rule not met
O=C(NO)C1(S(=O)(=O)c2ccc(-c3cnc(OCCC4CCCC4)cn3)cc2)CCOCC1	rule not met

----------
A collection of molecules and their measured Ki
target: Human recombinant MMP-13 (Homo sapiens, UniProt P45452); construct: made in house; host or cells: baculovirus / insect cells; assay: In vitro MMP inhibition analysis (fluorogenic peptide substrate cleavage), Ki; type: biochemical; settings: Table 2

molecule	Ki [nM]
O=C(c1ccc2cc(-c3ccc(S(=O)(=O)C4(C(=O)NO)CCOCC4)cc3)ccc2c1)N1CCCCC1 [Example 223]	0.97
COCCOC1CCC(C(=O)NO)(S(=O)(=O)c2ccc(-c3cnc(CCCC(F)(F)F)cn3)cc2)CC1 (centres unmarked) [Example 210]	0.151
O=C(NO)C1(S(=O)(=O)c2ccc(-c3ccc(-c4ccncc4)cc3)cc2)CCOCC1 [Example 141]	0.012
COc1ccc(-c2ccc(S(=O)(=O)C3(C(=O)NO)CCOCC3)cc2)cc1F [Example 102]	0.075
O=C(NO)C1(S(=O)(=O)c2ccc(-c3ccc(CCO)cc3)cc2)CCOCC1 [Example 98]	0.147
CC(C)COc1cnc(-c2ccc(S(=O)(=O)C3(C(=O)NO)CCOCC3)cc2)cn1 [Example 170]	0.08
CCOc1ccc(-c2ccc(S(=O)(=O)C3(C(=O)NO)CCOCC3)cc2)cc1 [Example 163]	0.011
COCCOc1ccc(-c2ccc(S(=O)(=O)C3(C(=O)NO)CCN(CCOC)CC3)cc2)cc1F [Example 114]	0.042

----------
Target: Human recombinant MMP-1 (Homo sapiens)
Construct: made in house; host or cells: MMP-1-transfected HT-1080 cells (spent media)
Sequence (P03956 100-469): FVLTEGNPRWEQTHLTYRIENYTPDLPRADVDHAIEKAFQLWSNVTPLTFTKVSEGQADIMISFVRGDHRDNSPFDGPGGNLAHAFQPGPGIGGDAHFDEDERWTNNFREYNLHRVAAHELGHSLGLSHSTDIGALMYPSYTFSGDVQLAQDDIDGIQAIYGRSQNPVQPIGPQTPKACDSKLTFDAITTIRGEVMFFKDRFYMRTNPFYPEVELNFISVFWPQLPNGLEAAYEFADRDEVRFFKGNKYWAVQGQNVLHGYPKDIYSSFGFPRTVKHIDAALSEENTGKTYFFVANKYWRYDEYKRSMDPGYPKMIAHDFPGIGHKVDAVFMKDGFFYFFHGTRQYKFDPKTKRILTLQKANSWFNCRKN
Assay: In vitro MMP inhibition analysis (fluorogenic peptide substrate cleavage), Ki
Assay type: biochemical
Conditions: Table 2
Response field label takes rule met when Ki is strictly below 2000 nM and rule not met in all other cases.

molecule	class_assignment
O=C(NO)C1(S(=O)(=O)c2ccc(-c3cnc(-n4cccc4)cn3)cc2)CCOCC1	rule not met
O=C(NO)C1(S(=O)(=O)c2ccc(-c3cnc(CCC(F)(F)F)cn3)cc2)CCN(C2CC2)CC1	rule not met
CC[C@H](C)NC(=O)c1ccc(-c2ccc(S(=O)(=O)C3(C(=O)NO)CCOCC3)cc2)nc1	rule met
CCCCc1ccc(-c2ccc(S(=O)(=O)C3(C(=O)NO)CCOCC3)cc2)cc1	rule not met
O=C(NO)C1(S(=O)(=O)c2ccc(-c3ccc(-c4ccccc4)cc3)cc2)CCN(C2CC2)CC1	rule met
COCCN1CCC(C(=O)NO)(S(=O)(=O)c2ccc(-c3cnc(CCC(F)(F)F)cn3)cc2)CC1	rule not met
O=C(NO)C1(S(=O)(=O)c2ccc(-c3cnc(OCC4CC4)cn3)cc2)CCOCC1	rule met
O=C(NO)C1(S(=O)(=O)c2ccc(-c3ccc(CCC(F)(F)F)cc3)cc2)CCOCC1	rule not met
O=C(NO)C1(S(=O)(=O)c2ccc(-c3ccc(F)c(C(F)(F)F)c3)cc2)CCOCC1	rule not met
O=C(NO)C1(S(=O)(=O)c2ccc(-c3ncc(CCC(F)(F)C(F)(F)F)cn3)cc2)CCOCC1	rule not met
O=C(NO)C1(S(=O)(=O)c2ccc(-c3ccc(-c4ccccc4F)cn3)cc2)CCN(C2CC2)CC1	rule met
O=C(NO)C1(S(=O)(=O)c2ccc(-c3cnccn3)cc2)CCOCC1	rule not met
O=C(NO)C1(S(=O)(=O)c2ccc(-c3ccc(-c4ccncc4)cc3)cc2)CCOCC1	rule met
C#CCN1CCC(C(=O)NO)(S(=O)(=O)c2ccc(-c3ccc(CCC(F)(F)C(F)(F)F)cn3)cc2)CC1	rule not met
CCC(C)COc1ccc(-c2ccc(S(=O)(=O)C3(C(=O)NO)CCOCC3)cc2)cc1C(F)(F)F (stereo not shown)	rule not met
O=C(c1ccc2cc(-c3ccc(S(=O)(=O)C4(C(=O)NO)CCOCC4)cc3)ccc2c1)N1CCCCC1	rule met
